Parameter: pEC50. Scope: all listed entries.
# experimentalTarget: cloned human M4 receptor (human Muscarinic receptor subtype 4) (Homo sapiens, UniProt P08173)
# Construct: purchased Perkin-Elmer RBHM4M; host or cells: Chinese hamster ovary cells (CHO) membranes
# Sequence (P08173 whole entry): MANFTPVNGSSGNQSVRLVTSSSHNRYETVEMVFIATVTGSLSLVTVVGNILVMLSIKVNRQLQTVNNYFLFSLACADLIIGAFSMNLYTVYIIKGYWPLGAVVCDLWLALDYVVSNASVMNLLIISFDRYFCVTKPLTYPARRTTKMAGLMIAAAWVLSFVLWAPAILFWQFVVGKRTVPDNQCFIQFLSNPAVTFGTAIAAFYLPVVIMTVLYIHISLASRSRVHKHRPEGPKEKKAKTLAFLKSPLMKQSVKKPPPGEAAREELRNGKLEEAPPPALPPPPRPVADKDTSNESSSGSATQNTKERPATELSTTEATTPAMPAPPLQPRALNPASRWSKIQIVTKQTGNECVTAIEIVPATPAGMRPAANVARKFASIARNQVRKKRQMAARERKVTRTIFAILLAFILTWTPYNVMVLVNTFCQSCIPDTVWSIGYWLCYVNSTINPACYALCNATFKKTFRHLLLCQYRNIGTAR
# experimentalDetails: hM4 receptor GTPγS binding
# Type: biochemical
# experimentalParameters: CHO cell membranes expressing hM4; [35S]GTPγS binding; read-out: hM4 EC50
Please note pEC50 is a logarithmic value: minus log10 of concentration in mol/L. Answer with that number alone.

Illustrative cases are given below, each with its answer.
>  <compound>
CC1(N2CCC(n3c(=O)[nH]c4ccccc43)CC2)CCN(C(=O)OCCF)C1 (racemic) [Example 4]

>  <measValue>
5.36

$$$$
>  <compound>
C#CCOC(=O)N1CCC(C)(N2CCC(n3c(=O)[nH]c4ccc(C)cc43)CC2)C1 (single isomer, unassigned) [Example 41]

>  <measValue>
5.06

$$$$
>  <compound>
CC1(N2CCC(n3c(=O)[nH]c4cc(F)c(F)cc43)CC2)CCN(C(=O)OCCF)C1 (single isomer, unassigned)

>  <measValue>
5.35

$$$$
>  <compound>
COC(=O)N1CCC(C)(N2CCC(n3c(=O)[nH]c4ccc(C)cc43)CC2)C1 (stereo not shown) [Example 17]

>  <measValue>
5.50

$$$$

[in] Give its pEC50 value. Item: Cc1ccc2[nH]c(=O)n(C3CCN(C4(C)CCN(C(=O)OCCF)C4)CC3)c2c1 (single isomer, unassigned) [Example 26]
[out] 6.07
